assay: Inhibitory activity against IgE receptor
Property measured: IC50

>>> measurement("CNC(=O)[C@H](Cc1ccccc1)NC(=O)[C@H](Cc1cc2cccc(OC)c2o1)[C@H](O)C(=O)NO")
"> 20 µM"
>>> measurement("CC(C)(C)[C@H](NC(=O)[C@H](Cc1ccc2cc(F)c(F)cc2c1)[C@H](O)C(=O)NO)C(N)=O")
"> 1 µM"
>>> measurement("NC(=O)[C@H](Cc1ccccc1)NC(=O)[C@H](Cc1sc2ccccc2c1Cl)[C@H](O)C(=O)NO")
"> 10 µM"
>>> measurement("CNC(=O)[C@H](Cc1ccccc1)NC(=O)[C@H](Cc1csc2ccccc12)[C@H](O)C(=O)NO")
"> 1 µM"
